Measured values drawn from PubChem BioAssay (NCI) for this set.

System: MDA-MB-231 breast
Experiment: NCI-60 one-dose screen, 48 h
Conditions: 10 µM unless noted
Experimental: Cells are grown in 96 well plates and exposed to the test compound for 48 hours. Compounds are tested at a single concentration, which is 10^-5 M for most compounds. The reported endpoint is percent growth (GI% or GIPRCNT), where numbers from 0 - 100% represent growth inhibition, and numbers from -100% - 0 represent cell death. For example, a value of 40 represents 60% growth inhibition. A value of 0 means no net growth occurred over the course of the experiment. […]
The panel holds about 83,000 compounds, 20% with a hit somewhere; the sample as a whole holds those more often. Calls of active or inactive are those of the source. Rule for the calls: active = growth percent below 10; inactive = the rest.
Give one outcome, nothing more. List: Y (active), N (inactive)

Here are 2 compounds together with their reported answers.
Compound	Cat
CCCC(C)C1(CC)C(=O)NC(=O)N(C)C1=O (stereo not drawn)	N
CC[C@@H]1[C@@H](C)O[C@@](O)([C@@H](C)[C@H](O)[C@H](C)[C@H]2OC(=O)/C=C/C=C/[C@H](C)[C@@H]([C@@H](C)[C@@H](O)[C@H](C)[C@@]3(O)C[C@@H](O[C@H]4C[C@@H](O)[C@H](O)C(C)O4)[C@H](CC)[C@@H](C)O3)OC(=O)/C=C/C=C/[C@@H]2C)C[C@H]1O[C@@H]1C[C@@H](O)[C@H](O)C(C)O1 (stereo partly drawn)	Y

Pending compound:
Query block: Field: outcome | Entry: COC(=O)C12CC(NC(=O)c3csc([C@@H](C[C@H](C(C)C)N(C)C(=O)[C@@H](NC(=O)[C@H]4CCCCN4C)C4CC4)OC(C)=O)n3)(C1)C2
Result block: Y
